- Protocol Summary: CHO cell viability loss – luminescence, single concentration, cytotoxicity control for TLR9-MyD88 binding inhibitor project (AID 588336)
- Test Context: TLR9-MyD88 CHO cells cytotoxicity, at 4.98 µM
The list shows a part of the results. Active and inactive are the calls of the source. Cut-off read from the data, not from the text of the source: active = inhibition above about 11%; inactive = the rest.
The categories you may choose from are active, inactive

Called result for Oc1ccc2ccc3cccc[n+]3c2c1
inactive

Now give it for COc1cc(/C=C(\C#N)c2nc3c(s2)CC(C)CC3)ccc1O (centres undefined) too.
inactive

Now give it for Cc1cccc2cc3c(N)c(C(=O)N4CCCc5ccccc54)sc3nc12 too.
active

Now give it for COc1ccccc1/C=C/C(=O)OCC(=O)NC1CCCCCC1 too.
inactive

Now give it for COc1cc(C(=O)N2C(=O)c3cccc(N)c3C2=O)cc(OC)c1OC too.
inactive

Now give it for CCOc1ccc(C2=CC(c3ccccc3)n3ncnc3N2)cc1 (centres undefined) too.
inactive

Now give it for O=C1NC(=O)C2C1C(c1ccc([N+](=O)[O-])cc1)=NN2Cc1ccccc1 (centres undefined) too.
inactive

Now give it for O=[N+]([O-])c1ccc(N/N=C/c2ccccc2)cc1 too.
inactive

Now give it for Nc1cccc2c1C(=O)N(Cc1nnc(-c3ccccc3Br)o1)C2=O too.
inactive

Now give it for Nc1c(C(=O)c2cccs2)sc2nsc(SCCN3CCCCC3)c12 too.
active

Now give it for Cc1cccc(COc2ccccc2/C=N/Nc2ccc([N+](=O)[O-])cc2)c1 too.
inactive

Now give it for NS(=O)(=O)c1ccc(NC(=O)COC(=O)c2c3c(nc4ccccc24)/C(=C\c2ccc4c(c2)OCO4)CCC3)cc1 too.
inactive

Now give it for COC(=O)Cc1cc(=O)oc2c(C)c(O)ccc12 too.
inactive

Now give it for COc1ccc(-c2nn(-c3ccccc3)cc2/C=N/Nc2ccccn2)cc1OC too.
inactive
